Tested on: Escherichia coli TOP10
Test Method Notes: shrunken log2 fold change of peptide-encoding DNA abundance (4.5 h post-induction vs induction); higher = less antimicrobial activity (less host growth inhibition)
Conditions Used: time post-induction: 4.5 h; library: site-saturation at positions 5, 18, 19, 20
Quantity Measured: shrunken log2 fold change
Numbers only.

Below are worked cases with known answers.
RRIRVRPPRLPRPRPRPKLIPRP	-0.198
RRIRFRPPRLPRPRPRPKEGPRP	0.0546

Value sought for every listed sequence: shrunken log2 fold change.
1. RRIRFRPPRLPRPRPRPTRAPRP
2. RRIRIRPPRLPRPRPRPVEPPRP
3. RRIRLRPPRLPRPRPRPEQRPRP
4. RRIRDRPPRLPRPRPRPFDLPRP
5. RRIRHRPPRLPRPRPRPDQSPRP
6. RRIRSRPPRLPRPRPRPSLQPRP
7. RRIRHRPPRLPRPRPRPPPPPRP

Response:
1. 0.825
2. -0.115
3. 0.0422
4. -0.312
5. -0.016
6. -0.606
7. 1.05

Lab note: each sequence below needs its shrunken log2 fold change filled in.
1. RRIRDRPPRLPRPRPRPKWPPRP
2. RRIRSRPPRLPRPRPRPHEDPRP
3. RRIRPRPPRLPRPRPRPVLAPRP
4. RRIRMRPPRLPRPRPRPDYDPRP
5. RRIRMRPPRLPRPRPRPNKKPRP
6. RRIRARPPRLPRPRPRPLTCPRP

Response:
1: 0.466; 2: 0.132; 3: 0.668; 4: 0.635; 5: -0.0238; 6: -0.248

* * *

System: Escherichia coli TOP10
Test Method Notes: shrunken log2 fold change of peptide-encoding DNA abundance (4.5 h post-induction vs induction); higher = less antimicrobial activity (less host growth inhibition)
Conditions Used: time post-induction: 4.5 h; library: site-saturation at positions 5, 18, 19, 20
Quantity Measured: shrunken log2 fold change

// known answers, use as guide
RRIRMRPPRLPRPRPRPWDGPRP	0.0785
RRIRNRPPRLPRPRPRPMWFPRP	0.0647
RRIRYRPPRLPRPRPRPTEYPRP	-0.204

Batch request: shrunken log2 fold change per item, same order as input.
1. RRIRDRPPRLPRPRPRPTWFPRP
2. RRIRKRPPRLPRPRPRPDCYPRP
3. RRIRFRPPRLPRPRPRPDGNPRP
4. RRIRGRPPRLPRPRPRPKQIPRP

Response:
[0.295, 0.012, -0.174, 0.335]

* * *

Provide the recorded shrunken log2 fold change for the entries that follow.
System: Escherichia coli TOP10
Test Method Notes: shrunken log2 fold change of peptide-encoding DNA abundance (4.5 h post-induction vs induction); higher = less antimicrobial activity (less host growth inhibition)
Conditions Used: time post-induction: 4.5 h; library: site-saturation at positions 5, 18, 19, 20
Answers are plain numbers.

Below, each entry is followed by its recorded shrunken log2 fold change result.
RRIRNRPPRLPRPRPRPKFCPRP	-0.198
RRIRERPPRLPRPRPRPTSAPRP	0.153
RRIRNRPPRLPRPRPRPFFTPRP	-0.147
RRIRTRPPRLPRPRPRPCRWPRP	-0.00822

Batch of 4 sequences: report shrunken log2 fold change for each.
1. RRIRMRPPRLPRPRPRPNGKPRP
2. RRIRMRPPRLPRPRPRPKWRPRP
3. RRIRERPPRLPRPRPRPKGSPRP
4. RRIRMRPPRLPRPRPRPIFFPRP

Response:
0.321
0.797
0.00854
0.276

Field: shrunken log2 fold change. Fill in for each record below.
1. RRIRSRPPRLPRPRPRPDCRPRP
2. RRIRVRPPRLPRPRPRPGQWPRP
3. RRIRSRPPRLPRPRPRPGCMPRP
4. RRIRLRPPRLPRPRPRPLMKPRP

Response:
0.0345
0.0407
0.0917
0.0215

# map each sequence to its shrunken log2 fold change
1. RRIRGRPPRLPRPRPRPKQRPRP
2. RRIRARPPRLPRPRPRPGFWPRP
3. RRIRKRPPRLPRPRPRPYVPPRP

Response:
[0.471, 0.682, -0.423]

* * *

Assignment: determine reported shrunken log2 fold change for the given sequences.
Tested on: Escherichia coli TOP10;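 note: peptides expressed intracellularly from a pBAD plasmid library in pooled LB shake-flask culture, induced with 0.3% L-arabinose, DNA abundance read by NGS, three biological replicates, DESeq2 with apeglm shrinkage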
Test Method Notes: shrunken log2 fold change of peptide-encoding DNA abundance (4.5 h post-induction vs induction); higher = less antimicrobial activity (less host growth inhibition)
Conditions Used: time post-induction: 4.5 h; library: site-saturation at positions 5, 18, 19, 20
One number for each entry.

Example cases with answers are listed next.
RRIRWRPPRLPRPRPRPRMSPRP	0.139
RRIRNRPPRLPRPRPRPDIEPRP	0.0309
RRIRQRPPRLPRPRPRPWKTPRP	-0.0168
RRIRQRPPRLPRPRPRPKDFPRP	-0.00088
RRIRSRPPRLPRPRPRPFQEPRP	-0.0528

Would you mind listing shrunken log2 fold change for each of the following sequences?
1. RRIRRRPPRLPRPRPRPDAYPRP
2. RRIRTRPPRLPRPRPRPDCYPRP
3. RRIRPRPPRLPRPRPRPWHWPRP
4. RRIRDRPPRLPRPRPRPKQRPRP
5. RRIRLRPPRLPRPRPRPECRPRP

Response:
1. 0.249
2. -0.000691
3. -0.0102
4. 0.314
5. 2.41

Look at each sequence and report its shrunken log2 fold change.
1. RRIRTRPPRLPRPRPRPTHIPRP
2. RRIRSRPPRLPRPRPRPKWLPRP
3. RRIRRRPPRLPRPRPRPSDDPRP

Response:
1. -0.308
2. 0.104
3. 0.209

# map each sequence to its shrunken log2 fold change
1. RRIRVRPPRLPRPRPRPWINPRP
2. RRIRWRPPRLPRPRPRPAPVPRP
3. RRIRNRPPRLPRPRPRPMNAPRP
4. RRIRPRPPRLPRPRPRPHDFPRP
5. RRIRQRPPRLPRPRPRPSAFPRP

Response:
-0.565
0.433
-0.281
-0.145
-0.247

Look at each sequence and report its shrunken log2 fold change.
1. RRIRWRPPRLPRPRPRPHDLPRP
2. RRIRKRPPRLPRPRPRPPDCPRP
3. RRIRQRPPRLPRPRPRPAHDPRP
4. RRIRSRPPRLPRPRPRPGDHPRP
5. RRIRSRPPRLPRPRPRPSWIPRP
6. RRIRCRPPRLPRPRPRPMPFPRP
7. RRIRVRPPRLPRPRPRPQFTPRP
8. RRIRYRPPRLPRPRPRPYIFPRP

Response:
1: -0.0525; 2: 1.03; 3: -0.161; 4: -0.338; 5: -0.363; 6: -0.0545; 7: -0.697; 8: -0.322

Please look at the items below and tell me shrunken log2 fold change for each one, in order.
1. RRIRERPPRLPRPRPRPYKYPRP
2. RRIRFRPPRLPRPRPRPQRNPRP
3. RRIRERPPRLPRPRPRPSHIPRP
4. RRIRIRPPRLPRPRPRPEWRPRP
5. RRIRIRPPRLPRPRPRPVVCPRP
6. RRIRLRPPRLPRPRPRPGKQPRP
7. RRIRLRPPRLPRPRPRPHAHPRP
8. RRIRKRPPRLPRPRPRPPMLPRP

Response:
1. 0.686
2. -0.323
3. -0.25
4. 0.257
5. -0.000979
6. 0.0284
7. -0.506
8. 0.203

Could you report shrunken log2 fold change for every entry in the following list?
1. RRIRGRPPRLPRPRPRPPYTPRP
2. RRIRCRPPRLPRPRPRPKDVPRP
3. RRIRSRPPRLPRPRPRPMMMPRP
4. RRIRERPPRLPRPRPRPIWFPRP
5. RRIRQRPPRLPRPRPRPLEMPRP
6. RRIRIRPPRLPRPRPRPSLMPRP
7. RRIRSRPPRLPRPRPRPVPHPRP
8. RRIRKRPPRLPRPRPRPGSHPRP

Response:
[0.145, 0.015, -0.83, 0.0591, 0.155, -0.246, 0.0775, 0.0202]

Go through the list and state shrunken log2 fold change for each entry.
1. RRIRRRPPRLPRPRPRPTQFPRP
2. RRIRARPPRLPRPRPRPNLMPRP
3. RRIRPRPPRLPRPRPRPLWAPRP

Response:
1. 0.384
2. -0.0139
3. 0.343

Batch request: shrunken log2 fold change per item, same order as input.
1. RRIRQRPPRLPRPRPRPCWYPRP
2. RRIRARPPRLPRPRPRPHAFPRP
3. RRIRCRPPRLPRPRPRPHECPRP
4. RRIRERPPRLPRPRPRPEGVPRP
5. RRIRWRPPRLPRPRPRPVKDPRP
6. RRIRRRPPRLPRPRPRPVADPRP

Response:
[-0.261, 0.231, -0.3, 0.172, -0.0234, 0.228]
